Exercise: state measured pIC50 for each of the compounds provided.
Study System: first bromodomain (BrD1) of human BRD4 (Homo sapiens)
Construct: the first bromodomain (BrD1) of human BRD4; poly-His (cleaved yes); made in house
Test Protocol: Fluorescence anisotropy binding assay (competition with FITC-labeled MS417 probe)
Condition: FITC-MS417 probe 80 nM, PBS pH 7.4, 1 hour, 25° C., read-out: BRD4_1 IC50
pIC50: −log10 of the molar value.

What the record says about COc1ccc(NC(=O)Cc2cccc(NC3=C(C)C(=O)CCC3)c2)cc1 : pIC50 is < 5.00

What the record says about COC(=O)c1ccc(NC2=C(C)C(=O)CC2)c(Br)c1 : pIC50 is 5.00 to 6.00

What the record says about CC1=C(Nc2cccc(NS(=O)(=O)c3ccccc3C)c2Cl)CCC1=O : pIC50 is > 6.00

What the record says about CC1=C(Nc2ccc(NC(=O)c3cccc4ccccc34)cc2Cl)CCCC1=O : pIC50 is > 6.00

What the record says about CC1=C(Nc2cc(C(=O)Nc3ccccc3C)ccc2Cl)CCCC1=O : pIC50 is 5.00 to 6.00

What the record says about CC1=C(Nc2cccc(NS(=O)(=O)c3ccccc3C)c2Cl)CCCC1=O : pIC50 is > 6.00

What the record says about CC1=C(Nc2ccc(C(=O)Nc3ccccc3C)cc2Cl)CCC1=O : pIC50 is > 6.00

What the record says about CC1=C(Nc2ccc(C#N)cc2)CCC1=O : pIC50 is < 5.00

What the record says about COc1cc(NC2=C(C)C(=O)CC2)ccc1C(=O)NC1CCCCC1 : pIC50 is 5.00 to 6.00

---

Study System: first bromodomain (BrD1) of human BRD4 (Homo sapiens, UniProt O60885)
Construct: the first bromodomain (BrD1) of human BRD4; poly-His (cleaved yes)
Test Protocol: Fluorescence anisotropy binding assay (competition with FITC-labeled MS417 probe)
Condition: FITC-MS417 probe 80 nM, PBS pH 7.4, 1 hour, 25° C., read-out: BRD4_1 IC50
pIC50: −log10 of the molar value.
Exercise: state measured pIC50 for each of the compounds provided.

What the record says about CC1=C(Nc2ccc(NS(=O)(=O)C3CCCCC3)cc2Cl)CCCC1=O : pIC50 is > 6.00

What the record says about CC1=C(Nc2cccc(NS(=O)(=O)C3CCCCC3)c2Cl)CCCC1=O : pIC50 is > 6.00

What the record says about N#CC1=C(Nc2cccc(Cl)c2)CCCC1=O : pIC50 is < 5.00

What the record says about CC1=C(Nc2ccc(C(=O)Nc3ccccc3C)c(Cl)c2)CCC1=O : pIC50 is 5.00 to 6.00

What the record says about CC1=C(Nc2cccc(N)c2Cl)CCCC1=O : pIC50 is 5.00 to 6.00

What the record says about C#Cc1cccc(NC2=C(C)C(=O)CC2)c1 : pIC50 is 5.00 to 6.00

What the record says about CC1=C(Nc2cccc(C(=O)O)c2)CCC1=O : pIC50 is < 5.00

What the record says about COc1ccccc1NC(=O)c1ccc(NC2=C(C)C(=O)CC2)cc1 : pIC50 is 5.00 to 6.00

What the record says about CC1=C(Nc2cc(NS(=O)(=O)c3ccccc3C)ccc2Cl)CCCC1=O : pIC50 is > 6.00

What the record says about CC1=C(Nc2cc(Nc3ccccc3C)ccc2Cl)CCCC1=O : pIC50 is > 6.00

What the record says about CC1=C(Nc2ccc3ccncc3c2)CCCC1=O : pIC50 is 5.00 to 6.00

What the record says about CC1=C(Nc2ccc(C(=O)Nc3cccc(C)c3)cc2C)CCC1=O : pIC50 is 5.00 to 6.00

What the record says about CC1=C(Nc2ccc3[nH]c(=O)[nH]c3c2)CCCC1=O : pIC50 is 5.00 to 6.00

What the record says about CC1=C(Nc2ccncc2Cl)CCCC1=O : pIC50 is 5.00 to 6.00

What the record says about CC1=C(Nc2ccc3cc(C(=O)O)ccc3c2Cl)CCCC1=O : pIC50 is > 6.00

What the record says about COC(=O)c1ccc(C)c(NC(=O)c2ccc(Cl)c(NC3=C(C)C(=O)CCC3)c2)c1 : pIC50 is 5.00 to 6.00

What the record says about CC1=C(Nc2cc(N)ccc2Cl)CCCC1=O : pIC50 is 5.00 to 6.00

What the record says about CC1=C(Nc2cccc(NC(=O)c3cccc4ccccc34)c2Cl)CCCC1=O : pIC50 is > 6.00

What the record says about COc1ccccc1NC(=O)c1ccc(NC2=C(C)C(=O)CC2)cc1Cl : pIC50 is 5.00 to 6.00

Data provenance is patent US9884806B2.
